Below: a set of entries, each annotated with reported koff.
Biological target: T1, Human CD33 ECD-HSA (human)
T1 construct: CD33 ECD fused at the C-terminus to monomeric HSA (C58S) and a six-histidine tag; also called C33W2; huCD33 ECD-HSA
Assay: ProteOn SPR, mAb captured on anti-human Fc, antigen as analyte
The figure you give is taken to be in s⁻¹; do not add the unit.

binder	koff, s⁻¹
C33B912 (antibody, V domains shown, OMNIMouse-derived anti-CD33 mAb; also called C33H252/C33L118; C33F550) VH: EVQLVESGGGLVQPGRSLRLSCAASGFTFDDYAMHWVRQAPGKGLEWVSGIGWSGGSIVYADSVKGRFTISRDNAKNSLYLQMNSLRAEDTALYYCAKDSPYGDFFDYWGQGTLVTVSS VL: DIVMTQSPDSLAVSLGERATINCKSSQTVFYSSNNKNYLAWYQQKPGQPPKLLISWASTRKSGVPDRFSGSGSGTDFTLTVSSLQAEDVAVYYCQHYYSTPYTFGQGTKLEIK	4.29e-05
C33B915 (antibody, V domains shown, OMNIMouse-derived anti-CD33 mAb; same V regions as C33B907; also called C33H255/C33L121; C33F553) VH: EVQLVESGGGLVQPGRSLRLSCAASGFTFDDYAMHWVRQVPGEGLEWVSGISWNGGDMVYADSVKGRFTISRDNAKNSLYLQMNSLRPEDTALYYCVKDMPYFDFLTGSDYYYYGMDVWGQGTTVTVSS VL: SYELTQPPSVSVSPGQTASITCSGDNLGNEHVCWYHQKPGQSPVLVIYQNNKRPSGIPERFSGSNSGNTATLSISGTQATDEADYYCQAWDSTTAVFGGGTKLTVL	0.000989

Consider the additional binder presented here.
Per the record, C33B916 (antibody, V domains shown, OMNIMouse-derived anti-CD33 mAb; same V regions as C33B908; also called C33H256/C33L122; C33F554) VH: QVQLVESGGGVVQPGRSLRLSCATSGFTFSNYGMHWVRQAPGKGLEWVAVIWYVGSHKYYADSVKGRFTISRDNSKNTLYLQMNSLRAEDTAVYYCARDGSLCFDYWGQGTLVTVSS VL: SYELTQPPSVSVSPGQTANISCSGVTLGYNYAYWYQQKPGQSPILVISQDTQRPSGIPERFSGSNSGNTATLTISGTQAMDEAAYYCQAWDITTVLFGGGTKLTVL has koff of 0.000411
